Data origin, for the record: the supplement of paper PMC10567573

B1: MLL5 (parent)
chain: EQIAERKRKMVSWEASSLGLVTAA

# Variants of: B1
# Experimental Details: protein stability index of a GFP-peptide fusion (GPS, HEK-293T) (PSI 1-6); higher = more stable;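 note: lentivirally expressed fusions sorted by FACS into six bins by GFP to DsRed ratio, PSI derived from sequencing read proportions per bin multiplied by bin number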
# Test Conditions: c terminus: a fixed tail appended
Assign Met to entries whose protein stability index meets or exceeds 3; assign Not met to the rest.

variant_key=E1M assigned_label="Not met"
variant_key=M10V assigned_label="Not met"
variant_key=Q2M assigned_label="Not met"
variant_key=G19E assigned_label=Met
variant_key=W13P assigned_label=Met
variant_key=S16H assigned_label="Not met"
variant_key=L20N assigned_label=Met
variant_key=I3V assigned_label=Met
variant_key=W13Y assigned_label=Met
variant_key=E1A assigned_label="Not met"
variant_key=I3F assigned_label="Not met"
variant_key=Q2V assigned_label="Not met"
variant_key=R8A assigned_label=Met
variant_key=G19V assigned_label="Not met"
variant_key=G19S assigned_label=Met
variant_key=G19H assigned_label="Not met"
variant_key=R8P assigned_label=Met
variant_key=R8Y assigned_label="Not met"
variant_key=W13H assigned_label=Met
variant_key=E14N assigned_label=Met
variant_key=V21A assigned_label=Met
variant_key=K9M assigned_label="Not met"
variant_key=E1Y assigned_label="Not met"
variant_key=A24Y assigned_label="Not met"
variant_key=A23K assigned_label=Met
variant_key=E5N assigned_label="Not met"
variant_key=Q2D assigned_label=Met
variant_key=L18I assigned_label="Not met"
variant_key=M10H assigned_label=Met
variant_key=R6Q assigned_label="Not met"
variant_key=R6A assigned_label=Met
variant_key=K9H assigned_label="Not met"
variant_key=E1R assigned_label="Not met"
variant_key=V11F assigned_label="Not met"
variant_key=L18T assigned_label=Met
variant_key=S12H assigned_label="Not met"
variant_key=Q2F assigned_label="Not met"
variant_key=S12R assigned_label=Met
variant_key=E5V assigned_label="Not met"
variant_key=E1T assigned_label="Not met"
variant_key=A23I assigned_label=Met
variant_key=T22M assigned_label="Not met"
variant_key=E1I assigned_label="Not met"
variant_key=S12K assigned_label="Not met"
variant_key=G19W assigned_label="Not met"
variant_key=L20Y assigned_label="Not met"
variant_key=R8C assigned_label="Not met"
variant_key=L20D assigned_label=Met
variant_key=W13G assigned_label=Met
variant_key=L18S assigned_label="Not met"
variant_key=Q2A assigned_label="Not met"
variant_key=A24N assigned_label=Met
variant_key=S17A assigned_label="Not met"
variant_key=R8L assigned_label="Not met"
variant_key=S16C assigned_label="Not met"
variant_key=W13N assigned_label=Met
variant_key=W13A assigned_label=Met
variant_key=A24S assigned_label=Met
variant_key=S17L assigned_label=Met
